Entries and their measured pKd follow.
# TARGET_OR_SYSTEM: basic fibroblast growth factor (bFGF) (UniProt P09038 P09038:135-288)
# Sequence (P09038 135-288, one chain of several): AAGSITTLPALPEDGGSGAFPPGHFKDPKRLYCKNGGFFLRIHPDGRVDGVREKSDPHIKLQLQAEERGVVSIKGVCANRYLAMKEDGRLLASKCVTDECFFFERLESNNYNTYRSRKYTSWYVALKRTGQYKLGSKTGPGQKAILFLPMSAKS
# ASSAY_SUMMARY: filter; PBS, 0.01% HSA, 1 mM DTT, 37 C; +/-0.3
# COND: tags: Bachem California, 18 kDa, 154 aa; 125I-labeled for receptor assays
pKd: −log10 of the molar value.
MEASUREMENT_TYPE: pKd

1. 2'-NH2 54A (ssRNA, 2'-NH2 pyrimidines) RNA: GGGAGACAAGAAUAACGCUCAAACUGUUGUGUGGAAGACAGCGGGUGGUUGAUUCGACAGGAGGCUCACAACAGGC
8.77
2. 2'-NH2 49A (ssRNA, 2'-NH2 pyrimidines) RNA: GGGAGACAAGAAUAACGCUCAAAUGGUGUGUGGAAGACAGUGGGUGGUUGCAUUCGACAGGAGGCUCACAACAGGC
8.85
3. 2'-NH2 47B (ssRNA, 2'-NH2 pyrimidines) RNA: GGGAGGACGAUGCGGAGGGUGGCUGGGAGGACCCGCGGUGAAUCGGUAGCACAGUGAUGUUCGGUCAGACGACUCGCCCGA
8.54
